Target: human H1 receptor (Homo sapiens, UniProt P35367)
Construct: purchased Euroscreen SA, Brussels, Belgium ES-390-M; host or cells: recombinant CHO-K1 cells (membranes)
Sequence (P35367 whole entry): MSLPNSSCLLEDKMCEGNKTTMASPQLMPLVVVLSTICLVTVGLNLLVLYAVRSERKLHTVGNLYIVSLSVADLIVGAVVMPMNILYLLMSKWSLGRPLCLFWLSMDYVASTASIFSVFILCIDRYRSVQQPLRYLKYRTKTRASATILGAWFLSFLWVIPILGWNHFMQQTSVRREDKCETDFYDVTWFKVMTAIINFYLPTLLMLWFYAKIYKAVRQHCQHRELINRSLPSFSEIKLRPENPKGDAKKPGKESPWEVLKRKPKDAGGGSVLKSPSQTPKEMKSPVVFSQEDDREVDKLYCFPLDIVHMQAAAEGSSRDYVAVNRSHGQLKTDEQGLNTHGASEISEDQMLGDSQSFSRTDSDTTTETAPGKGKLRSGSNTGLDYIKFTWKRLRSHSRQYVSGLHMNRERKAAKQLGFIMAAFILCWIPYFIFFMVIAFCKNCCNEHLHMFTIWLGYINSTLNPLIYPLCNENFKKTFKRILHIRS
Assay: Histamine H1 receptor binding, displacement of [3H]-pyrilamine
Details: 1 nM [3H]-pyrilamine; membranes of recombinant CHO-K1 cells expressing human H1 receptor; read-out: H1 pKi/[1328_S] (converted)
READOUT KIND: Ki (µM)

* COc1ncc(C(C(=O)O)N2CCC(CN3CCC(Oc4ccc(Cl)c(Cl)c4)CC3)CC2)c(OC)n1 (stereo not shown) [Example 12] | 0.2

1 = CC(=O)Nc1cccc(C(C(=O)O)N2CCC(CN3CCC(Oc4ccc(Cl)c(Cl)c4)CC3)CC2)c1 (stereo not shown) [Example 14]
2 = C[C@@H](C(=O)O)N1CCC(CN2CCC(Oc3ccc(Cl)c(Cl)c3)CC2)CC1 [Example 84]
Pick one: 1 or 2 . Which has the bigger Ki number? Kindly state the label of the option you pick.
2
(2: 0.2 µM, 1: 0.0251 µM)

These data points were gathered from patent US20060040984A1.
